readout: pIC50
# pIC50: negative log10 of molar concentration; output just the value

Entry CC[C@H](C)[C@H](NC(=O)[C@H](Cc1ccc(O)cc1)NC(=O)[C@@H](N)C(C)C)C(=O)N[C@@H](Cc1cnc[nH]1)C(=O)N1CCC[C@H]1C(=O)N[C@@H](Cc1ccccc1)C(=O)O , tested on UniProtKB Q6P179, has a reported pIC50 of 5.10

* * *

- system under test: Endoplasmic reticulum aminopeptidase 1 (Homo sapiens)
- Sequence (Q9NZ08 whole entry): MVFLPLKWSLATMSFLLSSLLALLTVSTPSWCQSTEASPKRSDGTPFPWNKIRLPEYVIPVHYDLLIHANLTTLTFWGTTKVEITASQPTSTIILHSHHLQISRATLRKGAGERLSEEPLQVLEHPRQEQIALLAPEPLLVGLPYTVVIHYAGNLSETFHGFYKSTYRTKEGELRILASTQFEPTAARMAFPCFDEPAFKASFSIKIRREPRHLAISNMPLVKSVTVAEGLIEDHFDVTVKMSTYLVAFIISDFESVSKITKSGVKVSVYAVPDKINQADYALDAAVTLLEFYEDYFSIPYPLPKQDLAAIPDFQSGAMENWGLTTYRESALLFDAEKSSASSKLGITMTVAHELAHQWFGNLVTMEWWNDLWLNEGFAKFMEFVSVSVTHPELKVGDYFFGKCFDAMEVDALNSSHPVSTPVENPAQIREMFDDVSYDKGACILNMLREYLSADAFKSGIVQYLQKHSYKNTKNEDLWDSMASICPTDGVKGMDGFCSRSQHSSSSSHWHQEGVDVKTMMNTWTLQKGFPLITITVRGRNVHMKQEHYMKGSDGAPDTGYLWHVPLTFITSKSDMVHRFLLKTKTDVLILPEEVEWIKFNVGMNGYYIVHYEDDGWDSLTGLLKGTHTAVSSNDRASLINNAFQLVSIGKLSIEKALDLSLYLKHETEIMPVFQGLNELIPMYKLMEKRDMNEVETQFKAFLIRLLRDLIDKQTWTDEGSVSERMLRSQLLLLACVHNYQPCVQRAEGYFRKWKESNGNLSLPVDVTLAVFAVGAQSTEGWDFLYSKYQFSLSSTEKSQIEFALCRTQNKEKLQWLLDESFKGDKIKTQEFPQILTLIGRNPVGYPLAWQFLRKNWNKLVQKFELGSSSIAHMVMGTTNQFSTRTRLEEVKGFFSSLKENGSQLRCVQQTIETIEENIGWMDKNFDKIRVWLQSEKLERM
readout: IC50 (µM)
Express your answer in µM, writing the number without its unit.

Value of measured IC50 for the entry CC[C@H](C)[C@H](NC(=O)[C@H](Cc1ccc(O)cc1)NC(=O)[C@@H](N)C(C)C)C(=O)N[C@@H](Cc1cnc[nH]1)C(=O)N1CCC[C@H]1C(=O)N[C@@H](Cc1ccccc1)C(=O)O [ANGIOTENSIN IV] : 79.4
